# target: Nitric oxide synthase, inducible (Mus musculus) (UniProt P29477)
# Sequence (whole entry): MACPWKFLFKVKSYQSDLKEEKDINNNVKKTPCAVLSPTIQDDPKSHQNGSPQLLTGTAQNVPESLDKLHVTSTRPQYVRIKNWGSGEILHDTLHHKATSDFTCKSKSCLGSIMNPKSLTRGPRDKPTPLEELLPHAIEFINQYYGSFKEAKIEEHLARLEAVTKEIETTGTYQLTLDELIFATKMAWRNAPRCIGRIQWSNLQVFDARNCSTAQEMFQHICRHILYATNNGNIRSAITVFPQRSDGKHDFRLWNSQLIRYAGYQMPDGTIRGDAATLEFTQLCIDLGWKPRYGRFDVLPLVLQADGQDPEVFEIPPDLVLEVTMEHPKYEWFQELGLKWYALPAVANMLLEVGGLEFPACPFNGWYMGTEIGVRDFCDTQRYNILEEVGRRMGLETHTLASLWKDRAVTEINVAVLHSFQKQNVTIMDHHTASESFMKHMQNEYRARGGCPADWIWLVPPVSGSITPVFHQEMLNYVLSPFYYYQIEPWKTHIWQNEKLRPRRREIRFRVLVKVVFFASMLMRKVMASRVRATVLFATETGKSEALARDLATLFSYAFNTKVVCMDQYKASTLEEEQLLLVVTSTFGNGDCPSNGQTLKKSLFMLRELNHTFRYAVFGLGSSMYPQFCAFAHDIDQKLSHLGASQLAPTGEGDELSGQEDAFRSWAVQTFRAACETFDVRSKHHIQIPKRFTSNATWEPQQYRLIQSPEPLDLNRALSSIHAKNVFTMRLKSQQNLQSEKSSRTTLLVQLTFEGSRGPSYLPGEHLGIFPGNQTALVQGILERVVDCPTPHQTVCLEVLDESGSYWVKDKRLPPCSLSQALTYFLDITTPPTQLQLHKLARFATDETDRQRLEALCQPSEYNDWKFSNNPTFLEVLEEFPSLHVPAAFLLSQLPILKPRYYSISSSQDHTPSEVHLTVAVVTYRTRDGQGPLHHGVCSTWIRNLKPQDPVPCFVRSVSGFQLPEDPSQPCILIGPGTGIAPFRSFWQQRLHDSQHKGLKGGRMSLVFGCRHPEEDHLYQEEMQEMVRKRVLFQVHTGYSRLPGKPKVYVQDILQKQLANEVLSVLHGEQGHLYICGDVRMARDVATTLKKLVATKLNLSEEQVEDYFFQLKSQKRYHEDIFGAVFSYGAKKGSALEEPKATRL
# protocol-notes: Inhibition of iNOS-mediated nitric oxide production in LPS-stimulated mouse RAW 264.7 cells assessed as cell survival at 50 uM pretreated 15 mins before LPS challenge measured after 20 hrs relative to control
# Format: cell-based
observed-property: Survival (%)
Quick reminder: number only, in %, skip the unit.

In the examples that follow, each entry is paired with its recorded Survival.
compound-structure	readout-unit	assay-result
O=C(O)[C@H]1Cc2c([nH]c3ccccc23)CN1S(=O)(=O)c1ccc(Br)cc1	%	103
COC(=O)[C@H]1Cc2c([nH]c3ccccc23)CN1S(C)(=O)=O	%	79.9
COC(=O)[C@H]1Cc2c([nH]c3ccccc23)CN1Cc1ccccc1	%	81.2
COC(=O)[C@H]1Cc2c([nH]c3ccccc23)CN1C(=O)NC(C)C	%	89.4
COC(=O)[C@H]1Cc2c([nH]c3ccccc23)CN1C(=O)NC1CCCCC1	%	83.8
COC(=O)[C@@H]1Cc2c([nH]c3ccccc23)CN1S(=O)(=O)c1ccc(C)cc1	%	116

Provide the documented Survival with Nitric oxide synthase, inducible (Mus musculus) (UniProt P29477) as the system for "COC(=O)[C@@H]1Cc2c([nH]c3ccccc23)CN1Cc1ccc(O)cc1"
75.5

State its Survival on Nitric oxide synthase, inducible (Mus musculus) (UniProt P29477): "COC(=O)[C@@H]1Cc2c([nH]c3ccccc23)CN1Cc1ccc(OCc2ccccc2)cc1"
93.9

Short answer please: Survival, Nitric oxide synthase, inducible (Mus musculus) (UniProt P29477), entry "COC(=O)[C@H]1Cc2c([nH]c3ccccc23)CN1C(=O)NC12CC3CC(CC(C3)C1)C2"
63.2

Please state recorded Survival (tested on Nitric oxide synthase, inducible (Mus musculus) (UniProt P29477)) of "O=C(O)[C@H]1Cc2c([nH]c3ccccc23)CN1Cc1ccccc1"
109

Reported Survival for Nitric oxide synthase, inducible (Mus musculus) (UniProt P29477), given "COC(=O)[C@@H]1Cc2c([nH]c3ccccc23)CN1C(=O)NC12CC3CC(CC(C3)C1)C2" ?
66.7

Identify the measured Survival of "O=C(O)[C@@H]1Cc2c([nH]c3ccccc23)CN1S(=O)(=O)c1ccc(Br)cc1" for Nitric oxide synthase, inducible (Mus musculus) (UniProt P29477).
80.6

Lab request: please report Survival under test system Nitric oxide synthase, inducible (Mus musculus) (UniProt P29477) for "C=CCOC(=O)N1Cc2[nH]c3ccccc3c2C[C@@H]1C(=O)OC"
91.6

* * *

# target: Nitric oxide synthase, inducible (Mus musculus)
# protocol-notes: Inhibition of iNOS-mediated nitric oxide production in LPS-stimulated mouse RAW 264.7 cells at 50 uM pretreated 15 mins before LPS challenge measured after 20 hrs relative to control
# Assay type: cell-based
The entries below are paired with their reported inhibition.
Report only the number, with the unit % understood.

Example entries and their recorded answers appear below.
compound-structure	readout-unit	inhibition
CCCCCNC(=O)N1Cc2[nH]c3ccccc3c2C[C@H]1C(=O)OC	%	8.7
COC(=O)[C@H]1Cc2c([nH]c3ccccc23)CN1Cc1ccc(O)cc1	%	63.7
COC(=O)[C@H]1Cc2c([nH]c3ccccc23)CN1C(=O)NCCc1ccccc1	%	66.2
COC(=O)[C@H]1Cc2c([nH]c3ccccc23)CN1CC1CC1	%	5.6
Cc1ccc(S(=O)(=O)N2Cc3[nH]c4ccccc4c3C[C@@H]2C(=O)O)cc1	%	2.9
O=C(O)[C@H]1Cc2c([nH]c3ccccc23)CN1S(=O)(=O)c1ccc(Br)cc1	%	56.2
COC(=O)[C@@H]1Cc2c([nH]c3ccccc23)CN1C(=O)NC(C)C	%	37.8
COC(=O)[C@@H]1Cc2c([nH]c3ccccc23)CN1Cc1ccccc1	%	68.2

// query inhibition value for entry "COC(=O)[C@@H]1Cc2c([nH]c3ccccc23)CN1C(=O)NC12CC3CC(CC(C3)C1)C2"
64.1

Endpoint output: inhibition of "O=C(O)[C@@H]1Cc2c([nH]c3ccccc23)CN1S(=O)(=O)c1ccc(Br)cc1" . Value?
50

* * *

# target: Nitric oxide synthase, inducible (Mus musculus, UniProt P29477)
# protocol-notes: Inhibition of iNOS-mediated nitric oxide production in LPS-stimulated mouse RAW 264.7 cells pretreated 15 mins before LPS challenge measured after 20 hrs relative to control
Measured IC50 of individual entries
Just the number please, in µM, no unit attached.

compound-structure	readout-unit	IC50
COC(=O)[C@H]1Cc2c([nH]c3ccccc23)CN1C(=O)NC12CC3CC(CC(C3)C1)C2	µM	11.7
C=CCOC(=O)N1Cc2[nH]c3ccccc3c2C[C@@H]1C(=O)OC	µM	27.7
COC(=O)[C@@H]1Cc2c([nH]c3ccccc23)CN1S(=O)(=O)c1ccc(C)cc1	µM	22.6
COC(=O)[C@H]1Cc2c([nH]c3ccccc23)CN1Cc1ccccc1	µM	32.9
COC(=O)[C@H]1Cc2c([nH]c3ccccc23)CN1Cc1ccc(OCc2ccccc2)cc1	µM	29.4
O=C(O)[C@@H]1Cc2c([nH]c3ccccc23)CN1S(=O)(=O)c1ccc(Br)cc1	µM	49.7
COC(=O)[C@@H]1Cc2c([nH]c3ccccc23)CN1Cc1ccc(O)cc1	µM	38.8
COC(=O)[C@H]1Cc2c([nH]c3ccccc23)CN1Cc1ccc(O)cc1	µM	37.5

Reported IC50 for "COC(=O)[C@H]1Cc2c([nH]c3ccccc23)CN1C(=O)NC1CCCCC1" : what is it?
41.6

Could you share which IC50 value was measured for "O=C(O)[C@H]1Cc2c([nH]c3ccccc23)CN1S(=O)(=O)c1ccc(Br)cc1" ?
46.1

What does the data say about its IC50? Entry: "COC(=O)[C@@H]1Cc2c([nH]c3ccccc23)CN1Cc1ccccc1"
32

So what does the record say about IC50 for "COC(=O)[C@@H]1Cc2c([nH]c3ccccc23)CN1Cc1ccc(OCc2ccccc2)cc1" ?
39.2

Reported IC50, compound "COC(=O)[C@@H]1Cc2c([nH]c3ccccc23)CN1C(=O)NC12CC3CC(CC(C3)C1)C2" : ____
13.4

Name the reported IC50 value associated with the compound "COC(=O)[C@@H]1Cc2c([nH]c3ccccc23)CN1S(=O)(=O)c1ccc(Br)cc1"
23.1

Could you share which IC50 value was measured for "COC(=O)[C@@H]1Cc2c([nH]c3ccccc23)CN1C(=O)NC1CCCCC1" ?
41.1

Suppose we examine the compound "COC(=O)[C@H]1Cc2c([nH]c3ccccc23)CN1C(=O)NCCc1ccccc1" ; what IC50 value has been reported?
11

src = ChEMBL document CHEMBL1914395
